Entry source: BindingDB's records for doi:10.3109/14756366.2010.510471

Measured On: 5-hydroxytryptamine receptor 6 (Homo sapiens, UniProt P50406)
Sequence (P50406 whole entry): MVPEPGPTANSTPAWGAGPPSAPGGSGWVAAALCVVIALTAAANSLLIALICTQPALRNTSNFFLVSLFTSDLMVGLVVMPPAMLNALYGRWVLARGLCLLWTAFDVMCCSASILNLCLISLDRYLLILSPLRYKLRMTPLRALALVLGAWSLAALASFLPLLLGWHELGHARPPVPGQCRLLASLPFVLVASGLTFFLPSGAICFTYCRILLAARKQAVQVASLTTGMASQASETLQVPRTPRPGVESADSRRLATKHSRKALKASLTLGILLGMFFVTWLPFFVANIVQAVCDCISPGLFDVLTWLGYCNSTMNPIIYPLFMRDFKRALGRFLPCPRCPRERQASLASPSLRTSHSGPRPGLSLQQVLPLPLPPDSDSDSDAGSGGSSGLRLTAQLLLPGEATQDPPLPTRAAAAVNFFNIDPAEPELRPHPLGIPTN
pKi: −log10 of the molar value.
Quantity Kind: pKi

> print(dat)
                           molecular.string  measured.number
1  CN(C)CCOc1c2n(c3ccc(Cl)cc13)S(=O)(=O)c1ccccc1-2             6.33

====

Measured On: Cytochrome P450 2D6 (Homo sapiens)
Sequence (P10635 whole entry, canonical isoform): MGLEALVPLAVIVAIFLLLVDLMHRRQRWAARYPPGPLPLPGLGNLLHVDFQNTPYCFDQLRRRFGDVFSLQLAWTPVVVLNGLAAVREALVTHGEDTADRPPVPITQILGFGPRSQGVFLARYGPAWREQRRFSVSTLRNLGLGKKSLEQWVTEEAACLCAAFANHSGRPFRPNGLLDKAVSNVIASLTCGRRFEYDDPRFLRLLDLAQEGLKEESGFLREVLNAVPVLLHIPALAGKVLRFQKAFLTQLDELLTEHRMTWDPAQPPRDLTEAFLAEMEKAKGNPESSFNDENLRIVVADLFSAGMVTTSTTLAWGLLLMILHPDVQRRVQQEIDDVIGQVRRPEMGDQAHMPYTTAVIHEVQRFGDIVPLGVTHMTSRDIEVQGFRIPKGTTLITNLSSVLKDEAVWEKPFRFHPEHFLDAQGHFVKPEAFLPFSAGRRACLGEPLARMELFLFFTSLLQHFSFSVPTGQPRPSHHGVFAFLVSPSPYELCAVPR
Measurement Notes: Isoform-Selective Assay
pIC50: −log10 of the molar value.
Examples of molecules with documented pIC50 follow.
Quantity Kind: pIC50

> print(dat)
                           molecular.string  measured.number
1  CN(C)CCOc1c2n(c3ccccc13)S(=O)(=O)c1ccccc1-2             5.12
2  CN(C)CCOc1c2n(c3cc(Cl)ccc13)S(=O)(=O)c1ccccc1-2             5.30

====

Measured On: Cytochrome P450 3A4 (Homo sapiens)
Sequence (P08684 whole entry, canonical isoform): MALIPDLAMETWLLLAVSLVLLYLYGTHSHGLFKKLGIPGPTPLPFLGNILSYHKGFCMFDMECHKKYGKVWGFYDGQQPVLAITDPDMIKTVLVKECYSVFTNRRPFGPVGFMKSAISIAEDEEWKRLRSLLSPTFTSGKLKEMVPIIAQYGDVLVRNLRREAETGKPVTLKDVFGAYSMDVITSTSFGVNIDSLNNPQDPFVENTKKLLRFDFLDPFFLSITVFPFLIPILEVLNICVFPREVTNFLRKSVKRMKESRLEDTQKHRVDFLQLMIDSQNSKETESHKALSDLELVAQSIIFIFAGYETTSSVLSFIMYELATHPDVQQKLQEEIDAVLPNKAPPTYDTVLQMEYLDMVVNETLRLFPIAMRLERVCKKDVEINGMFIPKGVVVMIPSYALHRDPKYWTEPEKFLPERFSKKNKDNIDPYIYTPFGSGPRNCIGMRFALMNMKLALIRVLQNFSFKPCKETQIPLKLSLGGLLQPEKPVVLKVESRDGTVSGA
Measurement Notes: Isoform-Selective Assay
Protocol: The cytochrome P450 inhibitory potential was determined using isoform-selective assays and heterologously expressed human CYP2D6 and CYP3A4.
Examples of molecules with documented IC50 follow.
Quantity Kind: IC50 (µM)

> print(dat)
                           molecular.string                         measured.on  value.relation.sign  measured.number
1  CN(C)CCOc1c2n(c3cc(Cl)ccc13)S(=O)(=O)c1ccccc1-2  Cytochrome P450 3A4 (Homo sapiens)                    =             37.1
2  CN(C)CCOc1c2n(c3ccccc13)S(=O)(=O)c1ccccc1-2  Cytochrome P450 3A4 (Homo sapiens)                    >               45
